# TESTED_SYSTEM: HLA-DR1 (DRB1*0101) (Homo sapiens, UniProt P01903+P01911, A100R/D57E/F55L/F60I/F76Y/I96L/L162R/M171V/P40L/Q125E/R42F/V115G/Y59C)
# Construct: endogenous in cells
# METHOD_SUMMARY: HLA II/peptide competition binding assay, HLA-DR1
Ends that are not written are not given here.
PARAMETER: IC50 (µM)
Your answer is read as µM, so omit the unit and give the number.

(Q) Bench note: what IC50 did AILIWMYYHGPRHSDEH [Peptide A17H] show?
(A) 7.75

====

# TESTED_SYSTEM: HLA-DRB4 (DRB4*0101) (Homo sapiens, UniProt P01903+P13762, G164S)
# Construct: endogenous in cells
# METHOD_SUMMARY: HLA II/peptide competition binding assay, HLA-DRB4
Ends that are not written are not given here.
PARAMETER: IC50 (nM)
Your answer is read as nM, so omit the unit and give the number.

(Q) Bench note: what IC50 did AILIWMYYHGPRHSDEH [Peptide A17H] show?
(A) 150

Reference for the values: patent US20090130134A1
